Target chain: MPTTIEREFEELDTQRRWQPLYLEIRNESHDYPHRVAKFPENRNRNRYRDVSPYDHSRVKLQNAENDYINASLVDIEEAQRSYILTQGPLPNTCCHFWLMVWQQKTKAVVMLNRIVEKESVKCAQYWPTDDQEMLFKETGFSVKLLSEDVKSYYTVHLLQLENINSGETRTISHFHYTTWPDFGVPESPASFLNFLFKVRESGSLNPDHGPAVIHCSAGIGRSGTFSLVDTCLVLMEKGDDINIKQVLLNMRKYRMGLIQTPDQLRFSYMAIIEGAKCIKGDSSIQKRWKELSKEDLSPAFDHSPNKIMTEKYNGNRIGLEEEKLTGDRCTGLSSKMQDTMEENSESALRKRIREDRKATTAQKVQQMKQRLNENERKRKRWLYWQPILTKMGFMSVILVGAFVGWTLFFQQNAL
readout_type: IC50 (nM)

Some molecules with known IC50 results, for comparison:
O=C1CN(c2c(O)cc(CCN3CC(F)C3)cc2F)S(=O)(=O)N1    3
O=C1CN(c2c(O)cc(CCN3CCCC(F)C3)cc2F)S(=O)(=O)N1 (stereo not given)    3
CC1(C)CN(CCc2cc(O)c(N3CC(=O)NS3(=O)=O)c(F)c2)C1    2

1: CC(C)[C@@H]1CCN(CCc2cc(O)c(N3CC(=O)NS3(=O)=O)c(F)c2)C1
2: O=C1CN(c2c(O)cc(CC3CCCCNC3)cc2F)S(=O)(=O)N1 (stereo not given)
// compare measured IC50, left 1 , right 2 , return larger # answer = label of selected item 2
(2: 16 nM, 1: 1 nM)
